// data source = ChEMBL document CHEMBL4152277

test system: Amyloid-beta precursor protein (Homo sapiens) (UniProt P05067)
Sequence (P05067 whole entry): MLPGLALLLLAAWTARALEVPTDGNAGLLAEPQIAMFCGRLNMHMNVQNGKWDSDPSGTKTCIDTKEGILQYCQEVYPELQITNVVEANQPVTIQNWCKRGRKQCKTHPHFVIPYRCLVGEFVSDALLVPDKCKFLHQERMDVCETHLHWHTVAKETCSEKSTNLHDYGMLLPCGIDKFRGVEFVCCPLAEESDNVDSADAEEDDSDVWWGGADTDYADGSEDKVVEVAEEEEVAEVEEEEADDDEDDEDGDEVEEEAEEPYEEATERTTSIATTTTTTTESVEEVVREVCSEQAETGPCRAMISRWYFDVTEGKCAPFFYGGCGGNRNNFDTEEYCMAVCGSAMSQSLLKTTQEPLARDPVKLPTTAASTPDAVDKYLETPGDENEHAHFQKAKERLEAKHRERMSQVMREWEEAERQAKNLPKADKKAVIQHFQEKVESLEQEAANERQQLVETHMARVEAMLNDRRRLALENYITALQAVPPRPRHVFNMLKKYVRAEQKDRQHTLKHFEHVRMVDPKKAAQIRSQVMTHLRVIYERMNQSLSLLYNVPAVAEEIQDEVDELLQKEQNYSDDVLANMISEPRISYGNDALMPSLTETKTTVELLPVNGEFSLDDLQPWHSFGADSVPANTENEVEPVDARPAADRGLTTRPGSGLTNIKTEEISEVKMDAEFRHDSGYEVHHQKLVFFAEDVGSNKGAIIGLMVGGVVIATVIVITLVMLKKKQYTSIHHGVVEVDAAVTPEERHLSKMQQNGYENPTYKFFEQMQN
assay details: Inhibition of amyloid beta (1 to 42) (unknown origin) aggregation assessed as increase in time of half-life of aggregation at 100 uM using compound dissolved in DMSO measured after 42 hrs by Thioflavin T fluorescence assay relative to control
Activity calls are given as the source filed them. The rule behind the calls is not given here.
measured attribute: Activity

Consider the following illustrative entries.
{"columns": ["compound structure string", "test system", "measurement"],
 "data": [
  ["COc1ccc(NC(C)=O)cc1C(=O)NNC(=O)[C@H](CCCCNC(=O)OCc1ccccc1)NC(=O)[C@@H]1CCCN1[C@@H]1CN(C(=O)[C@@H](NC(=O)[C@H](C)NC(=O)OC(C)(C)C)C(C)C)CC[C@H]1NS(=O)(=O)c1ccc(C)cc1", "Amyloid-beta precursor protein (Homo sapiens) (UniProt P05067)", "inactive"],
  ["COc1ccc(NC(C)=O)cc1C(=O)NNC(=O)[C@H](CCCCN)NC(=O)[C@@H]1CCCN1[C@@H]1CN(C(=O)[C@@H](NC(=O)[C@H](C)NC(=O)[C@@H](N)C(C)C)C(C)C)CC[C@H]1NS(=O)(=O)c1ccc(C)cc1", "Amyloid-beta precursor protein (Homo sapiens) (UniProt P05067)", "30%"],
  ["COc1ccc(NC(C)=O)cc1C(=O)NNC(=O)[C@H](CCCCN)NC(=O)[C@@H]1CCCN1[C@@H]1CN(C(=O)[C@@H](NC(=O)[C@H](C)N)C(C)C)CC[C@H]1N", "Amyloid-beta precursor protein (Homo sapiens) (UniProt P05067)", "inactive"],
  ["COc1ccc(NC(C)=O)cc1C(=O)NNC(=O)[C@H](CCCCN)NC(=O)[C@@H]1CCCN1[C@@H]1CN(C(=O)[C@@H](NC(=O)[C@H](C)NC(=O)OC(C)(C)C)C(C)C)CC[C@H]1NS(=O)(=O)c1ccc(C)cc1", "Amyloid-beta precursor protein (Homo sapiens) (UniProt P05067)", "59%"]
]}

Could you now consider this next compound?
Which measured Activity belongs to COC(=O)[C@@H]1CCCN1[C@@H]1CNCC[C@H]1NS(=O)(=O)c1ccc(C)cc1 , tested on Amyloid-beta precursor protein (Homo sapiens) (UniProt P05067)?
inactive

---

test system: Amyloid-beta precursor protein (Homo sapiens)
assay details: Inhibition of amyloid beta (1 to 42) (unknown origin) aggregation assessed as increase in time of half-life of aggregation at 100 uM using compound dissolved in DMSO measured after 42 hrs by Thioflavin T fluorescence assay relative to control
Design: scale not given: the % may be the effect or the level left
Assign Activity to each entry below.

Which measured Activity belongs to COc1ccc(NC(C)=O)cc1C(=O)NNC(=O)[C@H](CCCCN)NC(=O)[C@@H]1CCCN1[C@@H]1CN(C(=O)[C@@H](NC(=O)[C@H](C)N)C(C)C)CC[C@H]1NS(=O)(=O)c1ccc(N)cc1 , tested on Amyloid-beta precursor protein (Homo sapiens)?
56%

Which measured Activity belongs to COc1ccc(NC(C)=O)cc1C(=O)NNC(=O)[C@H](CCCCN)NC(=O)[C@@H]1CCCN1[C@@H]1CN(C(=O)[C@@H](NC(=O)[C@H](C)N)C(C)C)CC[C@H]1NC(=O)OC(C)(C)C , tested on Amyloid-beta precursor protein (Homo sapiens)?
29%

Which measured Activity belongs to COc1ccc(NC(C)=O)cc1C(=O)NNC(=O)[C@H](CCCCN)NC(=O)[C@@H]1CCCN1[C@@H]1CN(C(=O)[C@@H](NC(=O)[C@H](C)N)C(C)C)CC[C@H]1NS(=O)(=O)c1ccc(C)cc1 , tested on Amyloid-beta precursor protein (Homo sapiens)?
76%
